Taken from patent US20230348852A1.

System: human limbal stem cells
run.description: Human limbal stem cell population expansion and measurement (expansion factor, p63alpha-positive cells)
Format: cell-based
experimental.setup: 10 micromolar in XVIVO15 medium, two passages; ratio of expanded population to seeded cells
Recorded measurements of Expansion factor, one per entry

Example cases with answers are listed next.
CC(C)(Nc1nc(-c2ccncc2Cl)nc2cnccc12)C(F)(F)F : 961
FC(F)(F)C1(Nc2nc(-c3ccncc3)nc3cnccc23)CCC1 : 1712
CC1(Nc2cc(-c3ccncc3)cc3cnccc23)CC1 : 681

Turning now to a further record.
input: Please indicate Expansion factor recorded for O[C@H]1CCC[C@@H]1Nc1nc(-c2ccncc2)nc2cnccc12
output: 39
